# testDescription: Quantitative High-Throughput drug screen in 47 multiple myeloma cell lines against the NCATS MIPE library collection: JIM1_ECACC cell viability assay (AID 1918964; note: potency is the fitted concentration of half-maximal effect)
# assayContext: JIM1 myeloma viability, CellTiter-Glo ATP luminescence, 48 h; series mostly up to 45.8 µM
Records with an inconclusive call do not appear. Activity calls are given as the source filed them. Calls come from the whole dose curve; as a rule, active = well fitted cell-killing curve with a large enough effect; inconclusive = small, poorly fitted or top-dose-only effect, or effect the other way; inactive = no such curve, though single readings can be large or run the other way.
metric: Potency

compound=O=C(O)c1c(Cl)c(Cl)c(Cl)c(Cl)c1-c1c2cc(I)c(=O)c(I)c-2oc2c(I)c(O)c(I)cc12 endpointvalue="2.35 µM (active)"
compound=COC(=O)N[C@H](C(=O)N1CCC[C@@H]1c1ncc(-c2ccc(-c3ccc(-c4cnc([C@@H]5CCCN5C(=O)[C@@H](NC(=O)OC)C(C)C)[nH]4)cc3)cc2)[nH]1)C(C)C endpointvalue="20.9 µM (active)"
compound=CO[C@H]1C=CC=C(C)C(=O)NC2=CC(=O)C(NCCN(C)C)=C(C[C@@H](C)C[C@H](OC)[C@@H](O)[C@@H](C)C=C(C)[C@@H]1OC(N)=O)C2=O endpointvalue="0.0209 µM (active)"
compound=CC(C)C(=O)Nc1ncc(-c2cc(C(F)F)nn2-c2c(Cl)cccc2Cl)s1 endpointvalue="10.5 µM (active)"
compound="COc1ccc(C2CC(c3ccccc3)=NN2c2ccc(S(N)(=O)=O)cc2)cc1 (centres undefined)" endpointvalue="14.8 µM (active)"
compound=COc1ccc2c(Oc3ccc(NC(=O)c4c(C)n(CC(C)(C)O)n(-c5ccccc5)c4=O)nc3)ccnc2c1 endpointvalue=inactive
compound="CNC(=O)c1ccc2cc(C3(O)CCn4cncc43)ccc2c1 (centres undefined)" endpointvalue=inactive
compound=N#CC1(c2ccc(NC(=O)c3cccnc3NCc3ccncc3)cc2)CCCC1 endpointvalue=inactive
compound=O=c1cc(N2CCOCC2)oc2c(-c3cccc4c3sc3ccccc34)cccc12 endpointvalue="2.96 µM (active)"
compound=CC=CC(=O)N(CC)c1ccccc1C endpointvalue=inactive
compound=CCn1cc(C(=O)O)c(=O)c2ccc(C)nc21 endpointvalue=inactive
compound="CC1CCC(C(=O)N(c2cc(C#CC(C)(C)C)sc2C(=O)O)C2CCC(O)CC2)CC1 (centres undefined)" endpointvalue=inactive
compound=O=c1cc(CN2CCOCC2)occ1OCCCCCSc1ccnc2cc(C(F)(F)F)ccc12 endpointvalue="18.7 µM (active)"
compound="C[N+]1(C)[C@@H]2CC(OC(=O)[C@H](CO)c3ccccc3)C[C@H]1[C@H]1O[C@@H]12 (some centres undefined)" endpointvalue=inactive
compound=NC1=N[C@@]2(c3cc(NC(=O)c4ccc(F)cn4)ccc3F)COC[C@@H]2CS1 endpointvalue="0.935 µM (active)"
compound=CC=CCC=CCCC(=O)[C@H]1O[C@@H]1C(N)=O endpointvalue="11.8 µM (active)"
compound=NC(CO)(CO)CCc1ccc(Sc2cccc(OCc3ccccc3)c2)cc1Cl endpointvalue="16.6 µM (active)"
compound=CC(C)(C)Cn1c(N)nc2ccc(-c3[nH]c(C(C)(C)C)nc3-c3ccc(F)cc3)nc21 endpointvalue=inactive
compound=N[C@H](CSC(c1ccccc1)(c1ccccc1)c1ccccc1)C(=O)O endpointvalue="14.8 µM (active)"

* * *

# System: Es-2
# testDescription: Primary qHTS to identify gynecologic anti-cancer compounds using libraries of approved drugs and bioactive compounds (AID 1345084); note: nearly all actives have a fitted effect of over 55% in size
# assayContext: Gynecologic cancer cell panel viability, ATPlite luminescence, 48 h; series mostly up to 57.5 µM
Inconclusive results are not listed. Active and inactive are the calls of the source. The call rests on the fitted dose curve; in most records, active means well fitted cell-killing curve with a large enough effect; inconclusive means small, poorly fitted or top-dose-only effect, or effect the other way; inactive means flat fitted curve, though single readings scatter.
Outcomes: True = active, False = inactive

compound="CS(=O)(=O)N(Cc1ccco1)CC(O)Cn1c2ccccc2c2ccccc21 (stereo not given)" targetortestsystem=Es-2 classification=False
compound=CC(=O)Nc1ccc([C@H](C)C(=O)Nc2ncc(C(C)C)s2)cc1 targetortestsystem=Es-2 classification=True
compound=O=C(O)c1cc(-c2ccccc2)nc2ccccc12 targetortestsystem=Es-2 classification=False
compound=COc1ccc2c(Oc3ccc(NC(=O)c4c(C)n(CC(C)(C)O)n(-c5ccccc5)c4=O)nc3)ccnc2c1 targetortestsystem=Es-2 classification=False
compound=CN(C)C1CCN(C(=O)c2ccc(NC(=O)Nc3nc(N4CCOCC4)nc(N4CCOCC4)n3)cc2)CC1 targetortestsystem=Es-2 classification=True

* * *

# targetOrTestSystem: Cytochrome P450 2C9 (Homo sapiens)
# testDescription: Cytochrome P450 family 2 subfamily C member 9 (CYP2C9) small molecule antagonists: luciferase biochemical (cell-free) qHTS assay (AID 1645842); note: nearly all actives have a fitted effect of over 55% in size
# assayContext: P450-Glo CYP2C9 enzyme assay, luciferin luminescence; series mostly up to 57.4 µM
Results filed as inconclusive are left out. Calls of active or inactive are those of the source. Calls come from the whole dose curve; as a rule, active = well fitted inhibition curve with a large enough effect in the repeat runs; inconclusive = weak or mixed curves; inactive = no such curve, though single readings can be large or run the other way.
Outcomes: active, inactive

molecule=Cc1cnc(C(=O)O)c[n+]1[O-] targetortestsystem="Cytochrome P450 2C9 (Homo sapiens)" classification=inactive
molecule=Clc1ccc(-c2nc3sccn3c2C=NOCc2ccc(Cl)c(Cl)c2)cc1 targetortestsystem="Cytochrome P450 2C9 (Homo sapiens)" classification=active
molecule="COCCOC(=O)C1=C(C)NC2=C(C(=O)CC(c3ccccc3OC)C2)C1c1cccc(O)c1 (configuration not stated)" targetortestsystem="Cytochrome P450 2C9 (Homo sapiens)" classification=active
molecule=COC[C@@H](c1ccc(C(F)(F)F)cc1)N1CCN(C2(C)CCN(C(=O)c3c(C)ncnc3C)CC2)C[C@H]1C targetortestsystem="Cytochrome P450 2C9 (Homo sapiens)" classification=inactive
molecule=C[N+](C)(C)CC(=O)O targetortestsystem="Cytochrome P450 2C9 (Homo sapiens)" classification=inactive
molecule="Cc1ccc(C(C)(O)c2nc3ccccc3s2)c(C)c1 (configuration not stated)" targetortestsystem="Cytochrome P450 2C9 (Homo sapiens)" classification=active
molecule="COc1ccc2cc(-c3nc(-c4ccc(S(C)=O)cc4)[nH]c3-c3ccncc3)ccc2c1 (configuration not stated)" targetortestsystem="Cytochrome P450 2C9 (Homo sapiens)" classification=active

* * *

# testDescription: qHTS of pediatric cancer cell lines to identify multiple opportunities for drug repurposing: Primary screen for NB1643 cells (AID 1347099); note: nearly all actives have a fitted effect of over 50% in size; note: potency is the fitted concentration of half-maximal effect
# assayContext: NB1643 neuroblastoma viability, CellTiter-Glo luminescence, 48 h; series mostly up to 46 µM
Records with an inconclusive call do not appear. Activity calls are given as the source filed them. The call rests on the fitted dose curve; in most records, active means well fitted cell-killing curve with a large enough effect; inconclusive means small, poorly fitted or top-dose-only effect; inactive means no such curve, though single readings can be large or run the other way.
metric: Potency

smilesrecord=CO[C@H]1C[C@@H]2CC[C@@H](C)[C@@](O)(O2)C(=O)C(=O)N2CCCC[C@@H]2C(=O)O[C@H]([C@H](C)C[C@@H]2CC[C@H](OC(=O)C(C)(CO)CO)[C@H](OC)C2)CC(=O)[C@H](C)C=C(C)[C@@H](O)[C@@H](OC)C(=O)[C@H](C)C[C@H](C)C=CC=CC=C1C endpointvalue="23.5 µM (active)"
smilesrecord=CC(=O)Nc1ccc([C@H](C)C(=O)Nc2ncc(C(C)C)s2)cc1 endpointvalue="1.18 µM (active)"
smilesrecord=CO[C@H]1C[C@@H]2CC[C@@H](C)[C@@](O)(O2)C(=O)C(=O)N2CCCC[C@@H]2C(=O)O[C@H]([C@H](C)C[C@@H]2CC[C@H](OP(C)(C)=O)[C@H](OC)C2)CC(=O)[C@H](C)C=C(C)[C@@H](O)[C@@H](OC)C(=O)[C@H](C)C[C@H](C)C=CC=CC=C1C endpointvalue=inactive
smilesrecord=COc1cc2ncnc(-n3nc(-c4ccccn4)nc3N)c2cc1OC endpointvalue="4.69 µM (active)"
smilesrecord=COc1ccc(-c2nc(N3CCOCC3)c3sc(CN(C)c4ncc(C(=O)NO)cn4)cc3n2)cn1 endpointvalue="0.001 µM (active)"
smilesrecord=COc1cc2nc(-c3ccc(N4CCN(C)CC4)cc3)nc(NCCN3CCOCC3)c2cc1OC endpointvalue="1.87 µM (active)"
smilesrecord=N[C@H](CSC(c1ccccc1)(c1ccccc1)c1ccccc1)C(=O)O endpointvalue=inactive
smilesrecord=NS(=O)(=O)c1ccc(NC2=CC(=O)c3ccccc3C2=O)cc1 endpointvalue="18.7 µM (active)"
smilesrecord=CCN1CCC[C@H]1CNC(=O)c1cc(S(N)(=O)=O)ccc1OC endpointvalue=inactive
smilesrecord=CC(C)(C)c1cc(C(=O)O)c(NC(=O)Nc2ccc3[nH]ncc3c2)s1 endpointvalue="23.5 µM (active)"

* * *

# System: HaCat
# testDescription: Cytotoxic Profiling of Annotated Libraries Using Quantitative High-Throughput Screening (AID 1296008); note: nearly all actives have a fitted effect of over 60% in size
# assayContext: Five cell lines viability, CellTiter-Glo ATP luminescence, 48-72 h
Records with an inconclusive call do not appear. The source made the active and inactive calls. Calls follow the shape of the dose curve; as a rule, active = well fitted inhibition curve with a large enough effect; inconclusive = small, poorly fitted or top-dose-only effect; inactive = flat fitted curve, though single readings scatter.
Outcomes: active, inactive

molecule=CO[C@H]1C[C@@H]2CC[C@@H](C)[C@@](O)(O2)C(=O)C(=O)N2CCCC[C@@H]2C(=O)O[C@H]([C@@H](C)C[C@@H]2CC[C@H](O)[C@H](OC)C2)CC(=O)[C@H](C)C=C(C)[C@@H](O)[C@@H](OC)C(=O)[C@H](C)C[C@H](C)C=CC=CC=C1C classification=inactive
molecule=CC(C)[C@H](CO)Nc1nc(Nc2ccc(C(=O)O)c(Cl)c2)c2ncn(C(C)C)c2n1 classification=inactive
molecule=COc1ccc(-c2nc(N3CCOCC3)c3sc(CN(C)c4ncc(C(=O)NO)cn4)cc3n2)cn1 classification=active
molecule=N[C@@]1(C(=O)O)CS(=O)(=O)[C@H]2[C@H](C(=O)O)[C@H]21 classification=inactive
molecule=OC[C@@H](O)[C@H](O)[C@H](O)[C@@H](O)CO classification=inactive
molecule=CC(C)C(=O)Oc1ccc(CO)cc1[C@H](CCN(C(C)C)C(C)C)c1ccccc1 classification=inactive
molecule=Cc1ccc([C@@H]2O[C@H](CO)[C@@H](O)[C@H](O)[C@@H]2O)cc1Cc1ccc(-c2ccc(F)cc2)s1 classification=inactive
molecule=Cc1ccc(Nc2cc(-c3cccc(N4C(=O)c5ccccc5C4=O)c3)ncn2)cc1NS(C)(=O)=O classification=inactive
molecule=CC(C)=CC[C@@H](O)C1=CC(=O)c2c(O)ccc(O)c2C1=O classification=inactive
molecule="CC(C(=O)O)c1ccc(-c2ccccc2)c(F)c1 (centres undefined)" classification=inactive
molecule=CN1C[C@H]2c3ccccc3Oc3ccc(Cl)cc3[C@@H]2C1 classification=inactive
molecule=CC(=O)O[C@]1(C(C)=O)CC[C@@H]2[C@@H]3C[C@H](C)C4=CC(=O)CC[C@]4(C)[C@H]3CC[C@@]21C classification=inactive
molecule=c1ccc2c(Cc3c[nH]c4ccccc34)c[nH]c2c1 classification=inactive
molecule=CC(=Cc1ccccc1)C=C1SC(=S)N(CC(=O)O)C1=O classification=inactive
molecule=O=C(O)CCc1nc(-c2ccccc2)c(-c2ccccc2)o1 classification=inactive
molecule="O=C1Nc2ccc(Cl)cc2C(C#CC2CC2)(C(F)(F)F)O1 (centres undefined)" classification=inactive
molecule=CC(=O)CCCCn1c(=O)c2c(ncn2C)n(C)c1=O classification=inactive
molecule=CCOc1ccc(Nc2nc(-c3c(C)nc4ccccn34)cs2)cc1 classification=inactive
molecule=Cc1c[nH]c(C=C2C(=O)Nc3ccccc32)c1CCC(=O)O classification=inactive
